- SUBJECT OF TEST: Delta-type opioid receptor (Homo sapiens, UniProt P41143)
- Sequence (P41143 whole entry): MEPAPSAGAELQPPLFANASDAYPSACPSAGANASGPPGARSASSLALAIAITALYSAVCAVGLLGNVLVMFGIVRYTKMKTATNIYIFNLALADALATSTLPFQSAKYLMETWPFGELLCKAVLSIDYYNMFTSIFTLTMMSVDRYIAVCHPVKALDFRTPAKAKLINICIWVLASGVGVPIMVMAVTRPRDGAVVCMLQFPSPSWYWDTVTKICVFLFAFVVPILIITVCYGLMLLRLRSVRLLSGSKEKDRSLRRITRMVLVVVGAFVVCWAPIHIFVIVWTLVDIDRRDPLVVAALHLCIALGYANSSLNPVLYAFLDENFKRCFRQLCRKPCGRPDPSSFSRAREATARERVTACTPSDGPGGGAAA
- TEST METHOD NOTES: Displacement of [3H]DPDPE from delta-opioid receptor (unknown origin)
METRIC: log10 Ki (log10 of the value in nM)
Response schema: value (number) is log10 of Ki in units of nM.

Some solved cases for reference:
>  <SMILES NOTATION>
O=C1CC[C@@]23Cc4ccc(O)cc4[C@@]2(CCN(CC2CC2)C3)C1

>  <log10 Ki>
2.65

$$$$
>  <SMILES NOTATION>
Oc1ccc2c(c1)[C@]13CCN(Cc4ccccc4)C[C@@]1(C2)Cc1cc2ccccc2nc1C3

>  <log10 Ki>
1.50

$$$$
>  <SMILES NOTATION>
CN1CC[C@]23Cc4nc5ccccc5cc4C[C@]2(Cc2ccc(O)cc23)C1

>  <log10 Ki>
0.27

$$$$
>  <SMILES NOTATION>
Oc1ccc2c(c1)[C@]13CCN(CC4CC4)C[C@@]1(C2)Cc1cc2ccccc2nc1C3

>  <log10 Ki>
-0.03

$$$$

Turning to the following molecule.
Q: Entry Oc1ccc2c(c1)[C@]13CCN(CC4(O)CC4)C[C@@]1(C2)Cc1cc2ccccc2nc1C3 , system Delta-type opioid receptor (Homo sapiens, UniProt P41143): what log10 Ki was measured?
A: 0.04
